# System: NCI-H23 lung
# protocol summary: NCI-60 one-dose screen, 48 h (100 = growth as untreated, 0 = no growth, -100 = all killed)
# cond: 10 µM unless noted
# Procedure: Growth inhibition of the NCI-H23 human Non-Small Cell Lung tumor cell line is measured as a screen for anti-cancer activity. Cells are grown in 96 well plates and exposed to the test compound for 48 hours. Compounds are tested at a single concentration, which is 10^-5 M for most compounds. The reported endpoint is percent growth (GI% or GIPRCNT), where numbers from 0 - 100% represent growth inhibition, and numbers from -100% - 0 represent cell death. […]
Compounds without any hit were thinned out: in the full panel of roughly 83,000, 20% have a hit.
endpoint: growth (%)
Number only, in %; omit the unit.

compound	growth [%]
Nc1nnnc2nc[nH]c12	31
O=C1C(=Cc2cn(Cc3ccccc3)c3ccccc23)C(=O)N(Cc2ccccc2)C(=O)N1Cc1ccccc1	87.8
O=[N+]([O-])c1ccc([Se]C2CCCCC2Cl)c([N+](=O)[O-])c1 (centres undefined)	40.3

# growth lookup, item CC(=O)O[C@H](C[C@H](C(C)C)N(C)C(=O)[C@@H](NC(=O)[C@H]1CCCN1C)C(C)C)c1nc(C(=O)N[C@@H](Cc2ccccc2)C[C@H](C)C(=O)O)c(C)s1
30.3

###

# Tested on: SNB-19 CNS
# protocol summary: NCI-60 one-dose screen, 48 h (100 = growth as untreated, 0 = no growth, -100 = all killed)
# cond: 10 µM unless noted
About 83,000 compounds went through this panel and 20% of them were active in at least one assay; those are over-represented in the sample as a whole. Activity calls are given as the source filed them. The calls were made as follows: active = growth percent below 10; inactive = the rest.
endpoint: growth

# count of solved cases: 3
compound	growth
COc1cc2c(=O)n(C3CCCCCCC3)c3c4cc[nH]c4ncc3c2cc1OC	55.2% (inactive)
Cc1cc(-c2nc3cc(F)ccc3[se]2)cc(F)c1N	97.2% (inactive)
CC1(C)CN1P(=O)(N1CC1(C)C)N1CC1(C)C (stereo not drawn)	105% (inactive)

# growth lookup, item COC(=O)[C@@H](C)C[C@H](Cc1ccccc1)NC(=O)c1csc([C@@H](C[C@H](C(C)C)N(C)C(=O)[C@@H](NC(=O)C23CC(NC(C)=O)(C2)C3)C2CC2)OC(C)=O)n1
65.3% (inactive)

What do you get for CC[C@]12C=CCN3CC[C@@]4(c5ccc(OC)cc5N(C)[C@H]4[C@@](O)(C(=O)OC)[C@@H]1OC(=O)CCCC[P+](c1ccccc1)(c1ccccc1)c1ccccc1)[C@@H]32 ?
12.7% (inactive)

What do you get for COc1ccc(/C=C\c2cc(OC)c(OC)c(OC)c2)cc1NC(=O)/C=C/c1ccc(OC)c(OC)c1 ?
36.6% (inactive)

What do you get for ClCCN(CCCl)c1nc(Cl)c(C2CC(c3ccccc3)=NN2c2cc(Cl)cc(Cl)c2)s1 (stereo not drawn) ?
98.7% (inactive)

What do you get for CN(CCCCN(C)CCOS(C)(=O)=O)CCOS(C)(=O)=O ?
94.7% (inactive)

###

# System: SK-MEL-5 melanoma
# protocol summary: NCI-60 one-dose screen, 48 h
# cond: 10 µM unless noted
This is part of a sample that, as a whole, favours compounds with a hit. Of some 83,000 tested, about 20% had one in any assay. Active and inactive are the calls of the source. How the source made its calls: active means growth percent below 10; inactive means the rest.
// classify into yes = active, no = inactive

Worked cases, answers included:
compound	classification
C[Se]C(=O)c1ccccc1OC(C)=O	no
COc1cccc2c1c(C(=O)C(=O)Nc1cc(C)no1)cn2Cc1ccc(F)cc1	no
O=C1CNC(c2ccccc2)c2cc(Cl)ccc2N1 (centres undefined)	no
CC(=O)[O][Hg][O]C(C)=O	no
CC1(C)CN1P(=O)(N1CC1(C)C)N1CC1(C)C (centres undefined)	no

What classification did C[C@@]12CC[C@@H](O)C[C@@H]1CC[C@H]1[C@H]2CC[C@@]2(C)[C@H](c3ccc(=O)oc3)CC[C@@]12O end up with in this test?
yes

What do you get for C=CC[Se]C(=O)c1ccccc1OC(C)=O ?
yes

What do you get for CCOC(=O)[C@@H](C)C[C@H](Cc1ccccc1)NC(=O)c1csc([C@@H](C[C@H](C(C)C)N(C)C(=O)[C@H](CCC(C)C)NC(=O)[C@H]2CCCCN2C)OC(C)=O)n1 ?
yes

What do you get for COC(=O)C12CC(NC(=O)c3csc([C@@H](C[C@H](C(C)C)N(C)C(=O)[C@@H](NC(=O)[C@H]4CCCCN4C)C4CC4)OC(C)=O)n3)(C1)C2 ?
yes

###

# System: SK-MEL-2 melanoma
# protocol summary: NCI-60 one-dose screen, 48 h
# cond: 10 µM unless noted
About 83,000 compounds went through this panel and 20% of them were active in at least one assay; those are over-represented in the sample as a whole. Activity calls are given as the source filed them. How the source made its calls: active means growth percent below 10; inactive means the rest.
// classify into active, inactive

Worked cases, answers included:
molecule	classification
CN1CCC(O)(c2ccc(F)cc2)C(C(=O)c2ccc(F)cc2)C1 (centres undefined)	inactive
O=C(N/N=C/c1ccc(N(CCCl)CCCl)cc1)c1cccc2ccccc12	inactive
O=NNc1ccccn1	inactive
COc1cc(C=Nc2cc(Cl)cc(Cl)c2)ccc1N(CCCl)CCCl	inactive
CC(=O)Nc1nc2c(s1)CC[C@@]1(C)C2=CC[C@H]2[C@@H]3CC[C@H](O)[C@@]3(C)CC[C@@H]21	inactive

What classification did C[C@]12CC[C@@H]3c4ccc(Oc5nc(N6CC6)nc(N6CC6)n5)cc4CC[C@H]3[C@@H]1CCC2=O end up with in this test?
inactive

What do you get for CC[C@H](C)[C@@H]1OC(=O)C(C)(C)[C@H](O)[C@H](Cc2ccccc2)OC(=O)[C@H](C(C)C)OC(=O)[C@@H](NC(=O)c2cccc(NC=O)c2O)[C@@H](C)OC1=O ?
inactive

What do you get for CCCCN1CCCC[C@@H]1C(=O)N[C@H](C(=O)N(C)[C@H](C[C@@H](OC(C)=O)c1nc(C(=O)NC2CCC(C(=O)OC)CC2)cs1)C(C)C)C(C)C (some centres undefined) ?
inactive

What do you get for Cc1ccc2c(C(C[N+](=O)[O-])c3cccs3)c(-c3ccccc3)[nH]c2c1 (centres undefined) ?
inactive

What do you get for Clc1ccc(CO/N=C(\Cn2ccnc2)c2ccc(Cl)cc2Cl)c(Cl)c1 ?
active

What do you get for O=C(N/N=C\c1ccc(N(CCCl)CCCl)cc1)c1cccc([N+](=O)[O-])c1 ?
inactive

What do you get for C=CCCCCCCCCC(=O)[O-].C=CCCCCCCCCC(=O)[O-].[Zn+2] ?
inactive

What do you get for COC(=O)[C@@H](C)C[C@H](Cc1ccccc1)NC(=O)c1csc([C@@H](C[C@H](C(C)C)N(C)C(=O)[C@@H](NC(=O)[C@H]2CCCCN2C)C2CC2)OC(C)=O)n1 ?
active

What do you get for C#Cc1ccc2c(c1)C(c1ccccc1)=NCC(=O)N2C ?
inactive

What do you get for c1cnc2[nH]cc(-c3csc(-c4cn(CCCCN5CCOCC5)c5ccccc45)n3)c2c1 ?
inactive

What do you get for CCCCCCCCCCCCNC(c1ccccc1)C(O)c1ccccc1 (centres undefined) ?
inactive

What do you get for O=C([O][Hg][CH2]C1OCCOC1[CH2][Hg][O]C(=O)c1ccccc1)c1ccccc1 (centres undefined) ?
inactive

What do you get for COc1cc([N+](=O)[O-])c2nc(C)ccc2c1[N+](=O)[O-] ?
inactive

What do you get for CC(CO)NC1CCCCC1 (centres undefined) ?
inactive

###

growth values by entry
# System: EKVX NSCLC
# protocol summary: NCI-60 one-dose screen, 48 h (100 = growth as untreated, 0 = no growth, -100 = all killed)
# cond: 10 µM unless noted
This is part of a sample that, as a whole, favours compounds with a hit. Of some 83,000 tested, about 20% had one in any assay.
Number only, in %; omit the unit.

# count of solved cases: 4
compound	endpoint	assay result
CC(=O)O[C@H](C[C@H](C(C)C)N(C)C(=O)[C@@H](NC(=O)[C@H]1CCCCN1C)C(C)(C)C)c1nc(C(=O)N[C@@H](Cc2ccccc2)C[C@H](C)C(=O)O)cs1	growth	39.7
O=C(CC1(O)C(=O)N(Cc2ccccc2)c2ccc(Cl)cc21)c1ccc(C(=O)NCC2CCC3(CC2)OOC2(CCCCC2)OO3)cc1 (configuration not stated)	growth	-71.1
C=CCc1cc2c(cc1OCC)OCO2	growth	91.1
CCn1c2ccccc2c2cc(C(=O)c3cccc4c3CCCN4)ccc21	growth	99.3

# growth lookup, item CCCC(C)C1(CC)C(=O)NC(=O)N(C)C1=O (configuration not stated)
105

What do you get for N#C[Se]CCN1C(=O)c2ccccc2C1=O ?
33.8

What do you get for ClCCN(CCCl)c1ccc(-n2cnc3c(Cl)ncnc32)cc1 ?
28.7
